Reference source: patent US20210284749A1

# study-system: T1, recombinant human BCMA (ELISA antigen, construct not specified) (human, UniProt Q02223 1-54)
# T1 construct: Fc 1-51; Fc/His 1-51; Fc 4-48) was coated in these ELISAs; also called recombinant BCMA; recombinant protein
# T1 sequence: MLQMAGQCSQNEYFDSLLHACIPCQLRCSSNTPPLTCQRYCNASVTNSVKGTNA
# procedure-details: ELISA on coated recombinant human BCMA, antibody titrated, HRP anti-Fab detection, absorbance 450 nm
measured-property: EC50 (read off the curve)

See these solved cases before continuing.
anti-BCMA IgG antibody 5A6 (antibody, V domains shown, also called 5A6 WT; 5A6 antibody) VH: EVQLLESGGGLVQPGGSLRLSCAASGFTFSNYGVHWVRQAPGKGLEWVSYISYSGGTYYNPSLKSRFTISRDNSKNTLYLQMNSLRAEDTAVYYCARDSDDFGFDYWGQGTLVTVSS VL: QSVLTQPPSASGTPGQRVTISCQGDSLRSYYVNWYQQLPGTAPKLLIYDHSKRPTGVPDRFSGSKSGTSASLAISGLRSEDEADYYCQSYDSSTVVFGGGTKLTVLG
~0.1 µg/mL
anti-BCMA IgG antibody 4H9 (antibody, V domains shown) VH: EVQLLESGGGLVQPGGSLRLSCAASGFTFSGYSMSWVRQAPGKGLEWVSSIYHTGYTYYNPSLKSRFTISRDNSKNTLYLQMNSLRAEDTAVYYCARYKSGAFDIWGQGTLVTVSS VL: EIVLTQSPGTLSLSPGERATLSCRASQSVSRNLAWYQQKPGQAPRLLIYGVSSRATGIPDRFSGSGSGTDFTLTISRLEPEDFAVYYCQQYGSSPPTFGQGTKVEIKR
~0.01 µg/mL
anti-BCMA IgG antibody 2C6 (antibody, V domains shown) VH: EVQLLESGGGLVQPGGSLRLSCAASGFTFSNYGMSWVRQAPGKGLEWVSSIDYNGSTYYNPSLKSRFTISRDNSKNTLYLQMNSLRAEDTAVYYCAKEHGLFDSWGQGTLVTVSS VL: EIVLTQSPGTLSLSPGERATLSCRVSQSISSYLNWYQQKPGQAPRLLIYDASTRAIGIPDRFSGSGSGTDFTLTISRLEPEDFAVYYCQQVNSYPITFGQGTKVEIKR
~0.05 µg/mL

Moving on to another binder below.
Sure, the documented EC50 (read off the curve) for anti-BCMA IgG antibody 5B5 (antibody, V domains shown, also called 5B5 antibody) VH: EVQLLESGGGLVQPGGSLRLSCAASGFTFSGHYWSWVRQAPGKGLEWVSTVSGSGGDTFYADSVKGRFTISRDNSKNTLYLQMNSLRAEDTAVYYCARGHSVMDVWGQGTLVTVSS VL: EIVLTQSPGTLSLSPGERATLSCRASQGIDSYVAWYQQKPGQAPRLLIYDASLRATGIPDRFSGSGSGTDFTLTISRLEPEDFAVYYCQQYNSWPITFGQGTKLEIKR is ~0.1 µg/mL
